- Target or test system: hRIPK1 (aa 1-375) fusion protein (Homo sapiens, UniProt Q13546)
- Construct: hRIPK1 (aa 1-375) fusion protein
- Sequence (Q13546 1-375): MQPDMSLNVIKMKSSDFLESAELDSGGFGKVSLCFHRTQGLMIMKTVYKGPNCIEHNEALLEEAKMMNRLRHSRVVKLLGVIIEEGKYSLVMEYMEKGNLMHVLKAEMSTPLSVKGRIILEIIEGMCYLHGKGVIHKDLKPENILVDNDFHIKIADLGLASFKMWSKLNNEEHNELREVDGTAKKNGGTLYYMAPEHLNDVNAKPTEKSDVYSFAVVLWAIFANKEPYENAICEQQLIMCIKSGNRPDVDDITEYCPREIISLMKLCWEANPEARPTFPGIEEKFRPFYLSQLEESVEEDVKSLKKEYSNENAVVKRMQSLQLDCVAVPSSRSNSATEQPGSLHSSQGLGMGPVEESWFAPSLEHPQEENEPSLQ
- Test description: ADP-Glo kinase assay: catalytic activity of RIPK1 (autophosphorylation, conversion of ATP to ADP)
- Format: biochemical
Assay readout: IC50 (nM)
Answers are plain numbers, in nM.

Please give IC50 for each item listed below.
1. N#Cc1cc(F)cc([C@@H]2CCON2C(=O)[C@H]2CC[C@H](Cn3ccc4ncc(F)cc43)CC2)c1 [compound 93]
2. Cc1nc(C[C@H]2CC[C@H](C(=O)N3OCC[C@H]3c3cc(F)cc(C#N)c3)CC2)cs1 [compound 239]
3. Cc1cc(C[C@H]2CC[C@H](C(=O)N3OCC[C@H]3c3cc(F)cc(C#N)c3)CC2)cn2c(C)nnc12 [compound 300]
4. CNC(=O)c1cc(F)cc(C[C@H]2CC[C@H](C(=O)N3OCC[C@H]3c3ccc(F)cc3)CC2)c1 [compound 165]
5. N#Cc1cc(F)c2ncn(C[C@H]3CC[C@H](C(=O)N4OCC[C@H]4c4cc(F)cc(F)c4)CC3)c2c1 [compound 37]

stdout:
[20, 27, 19, 5, 17]

###

- Target or test system: hRIPK1 (aa 1-375) fusion protein (Homo sapiens, UniProt Q13546)
- Construct: hRIPK1 (aa 1-375) fusion protein
- Test description: ADP-Glo kinase assay: catalytic activity of RIPK1 (autophosphorylation, conversion of ATP to ADP)
Assay readout: IC50 (nM)
Answers are plain numbers, in nM.

1) Cc1cnc([C@@H]2CCON2C(=O)[C@H]2CC[C@H](Cc3cc(F)c4nc(C)nn4c3)CC2)cn1: 50

For every listed record, write down its IC50.
1. N#Cc1cc(F)cc([C@@H]2CCON2C(=O)[C@H]2CC[C@H](Cn3ccc4ccncc43)CC2)c1
2. Cc1ncc(C[C@H]2CC[C@H](C(=O)N3OCC[C@H]3c3ccc(F)c(F)c3)CC2)cn1
3. Cc1cnc([C@@H]2CCON2C(=O)[C@H]2CC[C@H](Cc3cc(C)c4ncnn4c3)CC2)cn1
4. Cc1nc2c(C)cc(C[C@H]3CC[C@H](C(=O)N4OCC[C@H]4c4cncc(F)c4)CC3)cn2n1
5. N#Cc1cc(F)cc([C@@H]2CCON2C(=O)[C@H]2CC[C@H](Cc3ccc(F)c(C#N)c3)CC2)c1

stdout:
1. 39
2. 15
3. 46
4. 15
5. 20

###

- Target or test system: hRIPK1 (aa 1-375) fusion protein (Homo sapiens, UniProt Q13546)
- Construct: hRIPK1 (aa 1-375) fusion protein
- Test description: ADP-Glo kinase assay: catalytic activity of RIPK1 (autophosphorylation, conversion of ATP to ADP)
Assay readout: pIC50
Numbers only, as −log10 of the molar value.

1) N#Cc1cncc([C@@H]2CCON2C(=O)[C@H]2CC[C@H](Cn3cc4ccc(C#N)cc4n3)CC2)c1 [compound 127]: 7.54
2) Cc1nc([C@@H]2CCON2C(=O)[C@H]2CC[C@H](Cc3cc(F)c4nnc(C)n4c3)CC2)cs1 [compound 363]: 6.74
3) N#Cc1ccc2c(cnn2C[C@H]2CC[C@H](C(=O)N3OCC[C@H]3c3cc(F)cc(F)c3)CC2)c1 [compound 52]: 7.82
4) Cc1nc([C@@H]2CCON2C(=O)[C@H]2CC[C@H](Cn3cc4ccc(C#N)cc4n3)CC2)cs1 [compound 203]: 6.90

Let us examine a further case.
stdin: Name the recorded pIC50 for N#Cc1cc(F)cc([C@@H]2CCON2C(=O)[C@H]2CC[C@H](Cn3ccc4cc(F)ccc43)CC2)c1 [compound 95] .
stdout: 7.66

Reference for the values: patent US20260158009A1
